- Test system: KM12 colon
- assay-name: NCI-60 one-dose screen, 48 h (100 = growth as untreated, 0 = no growth, -100 = all killed)
- conditions: 10 µM
- Procedure: Growth inhibition of the KM12 human tumor cell line is measured as a screen for anti-cancer activity. Cells are grown in 96 well plates and exposed to the test compound for 48 hours. Compounds are tested at a single concentration, which is 10^-5 M for most compounds. The reported endpoint is percent growth (GI% or GIPRCNT), where numbers from 0 - 100% represent growth inhibition, and numbers from -100% - 0 represent cell death. For example, a value of 40 represents 60% growth inhibition. […]
Compounds without any hit were thinned out: in the full panel of roughly 83,000, 20% have a hit.
Lab note: cut-off is 50%. Strictly less in growth is Condition met. Exactly 50% or more is Condition not met.

# count of solved cases: 5
> print(dat)
                                   molecule  qualitative.label
1  O=c1[nH]c2ccccc2cc1CSc1ccc(Nc2nccc(-c3ccc(Cl)cc3)n2)cc1      Condition met
2  N#Cc1c(-c2ccc(Cl)cc2)cc(-c2ccccc2)nc1OCc1ccccc1  Condition not met
3  Cc1ccc(-c2ccc(SCC(=O)Nc3ccc(Cl)c(C(F)(F)F)c3)nn2)cc1      Condition met
4    COc1ccc2[nH]c(=O)c(CSc3cccc(N)c3)cc2c1      Condition met
5  CC1(c2ccccc2)NC(=O)N(CC(=O)Nc2ccc(C(=O)/C=C/c3ccccc3)cc2)C1=O (stereo not drawn)      Condition met

Query: Problem: For the molecule `Cc1noc2c(Cc3ccc([N+](=O)[O-])cc3)nn(CC(=O)N/N=C/c3ccc(Cl)cc3)c(=O)c12` , is growth under 50%?
Response: Condition not met

Query: Problem: For the molecule `O=C(NO)c1ccc(CNc2nc(-c3ccccc3)c3ccccc3n2)cc1` , is growth under 50%?
Response: Condition met

Query: Problem: For the molecule `CN1CCN(c2ccc(Nc3nc(NCCCNC(=O)c4ccc(F)cc4)c4sccc4n3)cc2)CC1` , is growth under 50%?
Response: Condition not met

====

- System: NCI-H226 lung
- assay-name: NCI-60 one-dose screen, 48 h (100 = growth as untreated, 0 = no growth, -100 = all killed)
- conditions: 10 µM
About 83,000 compounds went through this panel and 20% of them were active in at least one assay; those are over-represented in the sample as a whole.
Reported growth values for a set of molecules
Report the figure in % without appending any unit label.

> print(dat)
                                   molecule  measured.number
1  COc1cc(/C=C/C(=O)c2ccc(NC(=O)CSc3nnc(-c4c[nH]c5ccccc45)n3-c3ccccc3)cc2)cc(OC)c1OC             69.9

Here is the next item to consider.
Query: Tell me its growth given `COc1ccc(C(=O)Nc2sc3c(c2C#N)CCC(=O)C3)cc1C(F)(F)F` as the entry.
Response: 6.58

====

- System: U251 CNS
- assay-name: NCI-60 one-dose screen, 48 h
- conditions: 10 µM
- Procedure: Growth inhibition of the U251 human tumor cell line is measured as a screen for anti-cancer activity. Cells are grown in 96 well plates and exposed to the test compound for 48 hours. Compounds are tested at a single concentration, which is 10^-5 M for most compounds. The reported endpoint is percent growth (GI% or GIPRCNT), where numbers from 0 - 100% represent growth inhibition, and numbers from -100% - 0 represent cell death. For example, a value of 40 represents 60% growth inhibition. […]
This is part of a sample that, as a whole, favours compounds with a hit. Of some 83,000 tested, about 20% had one in any assay. The source made the active and inactive calls. How the source made its calls: active means growth percent below 10; inactive means the rest.
Respond using exactly one of the listed classes: 1 (active), 0 (inactive)

# count of solved cases: 8
> print(dat)
                                   molecule  qualitative.label
1  CCOC(=O)CNC(=O)CN(Cc1ccccc1)C(=O)[C@@]1(C)CCC[C@]2(C)[C@H]3CC4C(C(C)C)=C[C@]3(CC[C@H]21)[C@@H]1C(=O)CCC(=O)[C@H]41                  0
2  C=C1CCC2C3(C)COC(c4ccccc4F)OC3CCC2(C)C1C/C=C1/C(=O)OCC1O (stereo not drawn)                  1
3  COc1ccc2nc(Cl)c(-c3cc(-c4ccccc4)nc(N)n3)cc2c1                  1
4  COc1ccc(-c2nc(Nc3ccccc3S(N)(=O)=O)c3ccccc3n2)cc1                  1
5      CC(=O)NNc1ccc2nnc(-c3ccc(Br)cc3)n2n1                  0
6  COc1ccc(OC)c(/C=N/NC(=O)c2ccc3nc(-c4ccc(Cl)cc4)[nH]c3c2)c1                  0
7  Cc1ccc(/C=C/C(=O)c2ccc(NC(=O)CSc3nnc(-c4c[nH]c5ccccc45)n3-c3ccccc3)cc2)cc1                  0
8  O=C(Cc1ccc2c(c1)CN(C1CCC(=O)NC1=O)C2=O)NCc1cccc2ccccc12 (stereo not drawn)                  0

Query: Assay result, entry `O=C(CSc1nnc(-c2c[nH]c3ccccc23)n1-c1ccccc1)Nc1ccc(C(=O)/C=C/c2ccccc2Cl)cc1` — outcome?
Response: 0

Query: Assay result, entry `O=C1Nc2ccc(Cl)cc2/C1=C/c1cccc(OCc2ccccn2)c1` — outcome?
Response: 1

Query: Assay result, entry `C=C(C)[C@@H]1CC[C@]2(C)[C@H](CC=C3[C@@H]4CC(C)(C)CC[C@]4(C(=O)N4CCOCC4)CC[C@]32C)[C@@]1(C)CCCN` — outcome?
Response: 1

====

Reported growth values for a set of compounds
- System: M14 melanoma
- assay-name: NCI-60 one-dose screen, 48 h (100 = growth as untreated, 0 = no growth, -100 = all killed)
- conditions: 10 µM
About 83,000 compounds went through this panel and 20% of them were active in at least one assay; those are over-represented in the sample as a whole.
Report the figure in % without appending any unit label.

These solved cases illustrate the format of a correct answer.
> print(dat)
                                   compound  measured.number
1  O=C1CCC(N2Cc3c(NCc4ccc(-c5ccccc5)cc4)cccc3C2=O)C(=O)N1 (stereo not given)             75.4
2  O=C(N=Nc1c(O)[nH]c2ccc(Br)cc12)c1ccc2nc(-c3ccccc3)[nH]c2c1            -85.9
3  NC1=NC(c2ccccc2Cl)N=C(Nc2nn[nH]n2)N1 (stereo not given)              106
4      CC(=O)NNc1ccc2nnc(-c3ccc(Br)cc3)n2n1             98.2

Query: Tell me its growth given `O=S(=O)(Nc1ncccn1)c1ccc(-n2c(-c3ccccc3)nc(-c3ccccc3)c2-c2ccccc2)cc1` as the entry.
Response: 102

Query: Tell me its growth given `COC1=C[C@@]23CCC(=O)N2CCc2cc4c(cc2[C@H]3[C@H]1OC(=O)C(C)(C)O)OCO4` as the entry.
Response: 102

====

Reported growth values for a set of compounds
- Tested on: PC-3 prostate
- assay-name: NCI-60 one-dose screen, 48 h (100 = growth as untreated, 0 = no growth, -100 = all killed)
- conditions: 10 µM
Compounds without any hit were thinned out: in the full panel of roughly 83,000, 20% have a hit.
Report the figure in % without appending any unit label.

> print(dat)
                                   compound  measured.number
1  Nc1n[nH]c2cccc(C#Cc3cccc(NC(=O)Nc4cc(C(F)(F)F)cc(C(F)(F)F)c4)c3)c12            -4.77
2  COc1ccc(C(=O)CSc2nnc(-c3c[nH]c4ccccc34)n2-c2ccccc2)cc1             50.3
3  O=C(Nc1ccncc1)c1ccc(-n2c(=O)[nH]c3ccccc3c2=O)cc1             92.4
4           O=C(Nc1nc2ccccc2s1)c1ccc(Br)cc1             82.1
5  CCCCSc1nc(Nc2ccc(/C(C)=N/NC(N)=S)cc2)c(C#N)c(-c2ccc(F)cc2)n1             28.6

Query: Would you please give the reported growth of `Cc1noc2c(Cc3ccccc3)nn(CC(=O)N/N=C/c3ccc(F)cc3)c(=O)c12` with PC-3 prostate?
Response: 65.6

Query: Would you please give the reported growth of O=C(c1ccc(O)cc1)C1[C@H](c2ccc(Br)cc2)[C@@H](c2ccccc2)NC12C(=O)Nc1ccccc12 (some centres not stated) with PC-3 prostate?
Response: 32.1

Query: Would you please give the reported growth of `CN(C(=O)c1ccc(C(F)(F)F)cc1C(F)(F)F)c1sc2c(c1C#N)CCC(=O)C2` with PC-3 prostate?
Response: 0.435
